- Test system: NCI-H226 lung
- test-details: NCI-60 one-dose screen, 48 h
- condition: 10 µM unless noted
The panel holds about 83,000 compounds, 20% with a hit somewhere; the sample as a whole holds those more often. The source made the active and inactive calls. How the source made its calls: active means growth percent below 10; inactive means the rest.
Outcome field: choose from active, inactive

Worked examples follow.
Inquiry: How did this test come out for CCn1cc(-c2ccnc3[nH]c(-c4cccc(CN(C)C)c4)cc23)c(-c2ccc(NC(=O)N(C)C)cc2)n1 ?
Reply text: inactive

Inquiry: How did this test come out for Brc1ccc([I+]c2ccc(Br)cc2)cc1 ?
Reply text: inactive

---
Inquiry: How did this test come out for CNC(=O)c1c(C)oc2cc(Oc3ncnc4cc(OC)c(OC)cc34)ccc12 ?
Reply text: inactive

Inquiry: How did this test come out for CC1(/C=N/NC(N)=S)NC(=O)NC1=O (stereo not drawn) ?
Reply text: inactive

###

- Test system: HCC-2998 colon
- test-details: NCI-60 one-dose screen, 48 h (100 = growth as untreated, 0 = no growth, -100 = all killed)
- condition: 10 µM
The panel holds about 83,000 compounds, 20% with a hit somewhere; the sample as a whole holds those more often.
Define the label as true when growth is strictly less than 50% and as false in all remaining cases.

Worked examples follow.
Inquiry: Lab note: confirm whether the reported growth for this compound is below 50%, equality not counting. compound: CCCCN1C(=O)c2cccc3c(-c4ccc5c(c4)ncn5C4CCCCC4)ccc(c23)C1=O
Reply text: false

Inquiry: Lab note: confirm whether the reported growth for this compound is below 50%, equality not counting. compound: CC(=O)CC1CCCC1c1ccc2ccccc2c1 (centres undefined)
Reply text: false

Inquiry: Lab note: confirm whether the reported growth for this compound is below 50%, equality not counting. compound: CSc1nc2ncncc2[nH]1
Reply text: false

Inquiry: Lab note: confirm whether the reported growth for this compound is below 50%, equality not counting. compound: COc1ccc(Cc2cc(-c3ccccc3C)n[nH]c2=O)cc1
Reply text: false

Inquiry: Lab note: confirm whether the reported growth for this compound is below 50%, equality not counting. compound: O=C(Nc1ccc(Nc2ncnc3sc4c(c23)CCOC4)cc1)Nc1ccc(Cl)c(C(F)(F)F)c1
Reply text: false

Inquiry: Lab note: confirm whether the reported growth for this compound is below 50%, equality not counting. compound: CC(=O)O[C@]1(C)C[C@H](O)[C@]2(O)C=CO[C@H](O[C@@H]3O[C@H](CO)[C@@H](O)[C@H](O)[C@H]3O)[C@@H]21
Reply text: false

Inquiry: Lab note: confirm whether the reported growth for this compound is below 50%, equality not counting. compound: Cn1cnc2c(F)c(Nc3ccc(Br)cc3F)c(C(=O)NOCCO)cc21
Reply text: true

Inquiry: Lab note: confirm whether the reported growth for this compound is below 50%, equality not counting. compound: Cc1cc(N(CCNc2ccnc3cc(Cl)ccc23)Cc2ccc3c(c2)OCO3)nc(N2CCN(C)CC2)n1
Reply text: true

---
Inquiry: Lab note: confirm whether the reported growth for this compound is below 50%, equality not counting. compound: COc1cc(CCc2cc(NC(=O)c3ccc(N4C[C@@H](C)N[C@@H](C)C4)cc3)n[nH]2)cc(OC)c1
Reply text: false

Inquiry: Lab note: confirm whether the reported growth for this compound is below 50%, equality not counting. compound: FC(F)(F)c1ccc(CNc2ccc(Cc3c[nH]c4ncc(Cl)cc34)cn2)cn1
Reply text: true

Inquiry: Lab note: confirm whether the reported growth for this compound is below 50%, equality not counting. compound: NC1(C(=O)N[C@@H](CCO)c2ccc(Cl)cc2)CCN(c2ncnc3[nH]ccc23)CC1
Reply text: true

Origin of the recorded values: PubChem BioAssay (NCI)
